# reported melting point; entries follow

Example results:
MOLECULE | melting point
CN1Cc2c(ccc(F)c2Cl)-n2c(c(C#CC(C)(C)O)[nH]c2=O)C1 | 208 to 209 °C
COc1ccc(Cn2ccn(C3CCc4ccccc4C3)c2=S)cc1OC (stereo not given) | 129 to 131 °C
Fc1ccc(-c2ncn(C3CCNCC3)c2-c2ccnc(Oc3ccc(Oc4ccccc4)cc3)n2)cc1 | 174 to 175 °C
CC(=O)OCC1OC([NH+]2C=NC(C#N)=C2[O-])C(OC(C)=O)C1OC(C)=O (stereo not given) | 160 to 161 °C
CCCC(CC)(C(=O)N(C)C)n1cc(C)c(-c2ccccc2)n1 (stereo not given) | 147 to 148 °C

GET /values?readout=melting point&item= "CC(=O)Nc1ccc(-c2cc(C(=O)c3ccccc3)sc2N2CCOCC2)cc1"
165 °C

Can you share its melting point? I mean this molecule: "COc1cc2c(cc1CCC#N)C(=O)CC(C)(C)O2"
105 to 107 °C

Which melting point is listed for "O=C(NCc1ccccc1C(F)(F)F)c1ccc2cnccc2n1" ?
125 to 127 °C

Quick one: melting point for "COc1cc(C=O)cc(OC)c1C(C)(C)O" ?
55 °C

Reported melting point for Cc1cc(C2=NOC(O)(C(F)(F)F)C2Cl)c(F)cc1Cl (stereo not given) : what is it?
90 to 91 °C
